- measured_on: T1, CD123 (protein in solution in the Octet affinity assay) (human, UniProt P26951 19-305, limits assumed)
- T1 construct: also called IL-3Rα; Interleukine-3 Receptor alpha
- T1 sequence (looked up): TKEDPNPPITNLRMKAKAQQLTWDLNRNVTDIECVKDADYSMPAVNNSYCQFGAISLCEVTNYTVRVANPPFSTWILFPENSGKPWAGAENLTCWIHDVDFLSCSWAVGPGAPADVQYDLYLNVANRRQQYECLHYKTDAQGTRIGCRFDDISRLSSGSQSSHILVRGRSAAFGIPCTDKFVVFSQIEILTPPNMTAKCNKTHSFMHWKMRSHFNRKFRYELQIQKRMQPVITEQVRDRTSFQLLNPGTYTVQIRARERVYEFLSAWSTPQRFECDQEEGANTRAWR
- protocol_text: BLI (Octet), antibody on streptavidin biosensor, CD123 in solution
Listed binders paired with reported koff
Report as a plain number; the unit s⁻¹ is understood.

[
  {
    "binder": "17F7B2 (antibody, V domains shown, Mouse hybridoma monoclonal antibody; also called AB2) VH: EVQLQQSGTVLARPGASVKMSCKASGYSFTSYWMHWVKQRPGQGLEWIGAFYPGKSDTTYNQKFKGKAKLTAVTSASTAYMELSSLTNEDSAVYYCTKGYRYDWFAYWGQGTLVTVSA VL: DVVMTQTPLSLPVSLGDQASISCRSSQSLVHSNGITYLHWYLQKPGQSPKLLIYKVSNRFSGVPDRFSGSGSGTDFTLKISRVEAEDLGVYFCSQNTHVPFTFGSGTKLEIKR",
    "koff, s⁻¹": 0.000882
  }
]

Next item in the queue.
So for 11B6E6 (antibody, V domains shown, Mouse hybridoma monoclonal antibody; also called AB3) VH: QVKLEESGPGLVAPSQSLSITCTVSGFSLTSYDISWIRQPPGKGLEWLGVIWTGGGTNYNSAFMSRLSISKDNSKSQVFLKMFSLQTDDTAIYYCVRAHGYYFAMDYWGQGTSVTVSS VL: DIVLTQSPSSLAVSAGEKVTMRCKSSQSLLNSSTRKNYLAWYQQKPGQSPKLLIYWASTRESGVPDRFTGSGSGTDFTLTISSVQAEDLAVYYCKQSYNLFTFGSGTKLEIKR , the logged koff turned out to be 0.000657
